System: A549 NSCLC
test method notes: NCI tumour cell line growth inhibition, 48 h; in the data active = GI50 below about 0.43 µM; inactive = the rest
Outcome (select one): active, inactive

Previously resolved entries follow.
Data request: Test call, this compound: C/C1=C\CC[C@@]2(C)O[C@@H]2C[C@@H]2[C@H](C/C(C)=C/CC1)OC(=O)C21CCN=N1 (some centres not stated)
Data returned: inactive

Data request: Test call, this compound: O=C1/C(=C/c2ccc([N+](=O)[O-])o2)Oc2ccccc21
Data returned: inactive

Data request: Test call, this compound: COc1cc(OC)c2cc(C(=O)O)c(=O)oc2c1
Data returned: inactive

Data request: Test call, this compound: COc1cc(C(=O)/C=C/c2c(-c3ccc(F)cc3)nc3ncccn23)cc(OC)c1OC
Data returned: inactive

Data request: Test call, this compound: COC(=O)c1oc2c(O)c(OC)c(Br)cc2c1C
Data returned: inactive

Next:
Data request: Test call, this compound: O=C(Nc1cccnc1)c1cccc([N+](=O)[O-])c1
Data returned: inactive

Data request: Test call, this compound: CC1(C)N=C(N)N=C(N)N1c1ccc(OCC(=O)N2CCOCC2)c(Cl)c1
Data returned: active

Data request: Test call, this compound: CCN(CC)CCCNc1nc2ccccc2c2c(=O)c3cc(Cl)ccc3sc12
Data returned: inactive

Data request: Test call, this compound: O=C1Nc2ccccc2/C1=C/c1cn(C(=O)c2c(Cl)cccc2Cl)c2ccccc12
Data returned: inactive

Data request: Test call, this compound: O=C(N1CCC(CN=c2cc3n(-c4ccc(Cl)cc4)c4ccccc4nc-3cc2Nc2ccc(Cl)cc2)CC1)N1CC1
Data returned: inactive

Data request: Test call, this compound: Cc1ccc(NSc2ccccc2[N+](=O)[O-])cc1
Data returned: inactive

Data request: Test call, this compound: O=C(N/N=c1/ccoc2cccnc12)N1CCN(c2ncccn2)CC1
Data returned: active

###

# reported TGI; entries follow
System: SR leukemia
test method notes: NCI tumour cell line growth inhibition, 48 h
Write down the numeric answer in µM and omit the unit.

Data request: Please look up its TGI: CCN(CC)CCNc1ccc2ncn3c4c(OC)cccc4c(=O)c1c23
Data returned: 20.8

Data request: Please look up its TGI: O=C1/C(=C/c2ccc([N+](=O)[O-])o2)Oc2ccccc21
Data returned: 1.13

# ---- query compound ----
Data request: Please look up its TGI: COc1cc(/C=C/C(=O)C(C(=O)/C=C/c2ccc(OC(=O)CCNc3nnc(C)s3)c(OC)c2)C(=O)CCNc2nnc(C)s2)ccc1OC(=O)CCNc1nnc(C)s1
Data returned: 3.31

###

Test system: MDA-MB-231 breast
test method notes: NCI tumour cell line growth inhibition, 48 h
quantity name: TGI (µM)
Write down the numeric answer in µM and omit the unit.

Here are 2 compounds together with their reported answers.
Data request: Hello, I am looking for reported TGI with MDA-MB-231 breast for COc1cc(C(=O)/C=C/c2c(-c3ccc(F)cc3)nc3ncccn23)cc(OC)c1OC . Could you help?
Data returned: 16.5

Data request: Hello, I am looking for reported TGI with MDA-MB-231 breast for CCN(CC)c1nc(N(C)C)c2ccc(OC)cc2n1 . Could you help?
Data returned: 75.8

# ---- query compound ----
Data request: Hello, I am looking for reported TGI with MDA-MB-231 breast for CCN(CC)CCNc1ccc2ncn3c4c(OC)cccc4c(=O)c1c23 . Could you help?
Data returned: 25.6

###

Tested on: HCC-2998 colon
test method notes: NCI tumour cell line growth inhibition, 48 h
# reported TGI; entries follow

Here are 10 compounds together with their reported answers.
Data request: Please look up its TGI: CNc1cccnc1/C=N/NC(N)=S
Data returned: > 10 µM

Data request: Please look up its TGI: COc1cc(C2CC(c3ccc(Nc4ccnc5cc(Cl)ccc45)cc3)=NN2C=O)cc(OC)c1OC (centres undefined)
Data returned: > 100 µM

Data request: Please look up its TGI: Cc1cc(N(CCC#N)CCC#N)ccc1/C(N=Nc1ccccc1)=N\NC(=O)c1ccccc1
Data returned: > 100 µM

Data request: Please look up its TGI: CCOC(=O)NC(NNc1ccc([N+](=O)[O-])cc1[N+](=O)[O-])(C(F)(F)F)C(F)(F)F
Data returned: > 100 µM

Data request: Please look up its TGI: CC(=O)NC(CCCCNC(=O)OC(C)(C)C)C(=O)O (centres undefined)
Data returned: > 100 µM

Data request: Please look up its TGI: Cc1ccc(-c2nc3c(C(=O)NCCN(C)C)cccc3[nH]2)cc1
Data returned: 29.4 µM

Data request: Please look up its TGI: NC(CCCCN=Cc1nc(-c2ccccc2)oc1O)C(=O)O (centres undefined)
Data returned: > 100 µM

Data request: Please look up its TGI: CCCCCCCCCCCCCCCCOC(=O)c1c(C)[nH]c(/C=C2\N=C(c3ccc[nH]3)C=C2OC)c1C
Data returned: 14.9 µM

Data request: Please look up its TGI: COc1ccc(Cn2cnc3cc(C(=O)Nc4cccc5ccccc45)ccc32)c(OC)c1
Data returned: 14.6 µM

Data request: Please look up its TGI: CCN(CC)CCCNc1nc2ccccc2c2c(=O)c3cc(Cl)ccc3sc12
Data returned: 4.01 µM

Next:
Data request: Please look up its TGI: NC(N)=N/N=C(/c1ccccc1)c1ccc(Cl)cc1
Data returned: 47.5 µM

Data request: Please look up its TGI: COc1ccc(C(=O)/C=C/c2ccc(OCC(=O)O)cc2)cc1
Data returned: > 100 µM

Data request: Please look up its TGI: O=C1N(CN2CCOCC2)CN(CN2CCOCC2)C(=O)N1Cc1ccccc1
Data returned: > 100 µM

Data request: Please look up its TGI: N#CCC12CC=CCC1=C(O)C(=O)c1ccc(O)cc12 (centres undefined)
Data returned: > 100 µM

Data request: Please look up its TGI: COc1ccc(N(C)c2nc(Cl)nc3ccn(C)c23)cc1
Data returned: > 100 µM

Data request: Please look up its TGI: COc1ccc(N2CCN(Cc3c(C(C)=O)[n+](=O)c4ccccc4n3[O-])CC2)cc1
Data returned: > 100 µM

Data request: Please look up its TGI: CC(=O)N1CC[N+](C)(CCCCN2c3ccccc3Sc3cc(N=[N+]=[N-])ccc32)CC1
Data returned: > 100 µM

Data request: Please look up its TGI: COC(=O)c1cc2c3ccccc3n3c(=O)c4cc5cc(OC)c(N(S(=O)(=O)c6ccc(C)cc6)S(=O)(=O)c6ccc(C)cc6)cc5nc4c(n1)c23
Data returned: > 100 µM

Data request: Please look up its TGI: CC1C=CC(C)C2(O)C(=O)NC(O)C12 (centres undefined)
Data returned: > 100 µM

###

Tested on: HT29 colon
test method notes: NCI tumour cell line growth inhibition, 48 h; in the data active = GI50 below about 0.43 µM; inactive = the rest
Outcome (select one): 1 (active), -1 (inactive)

Previously resolved entries follow.
Data request: Test call, this molecule: COC(=O)c1oc2c(O)c(OC)c(Br)cc2c1C
Data returned: -1

Data request: Test call, this molecule: O=C(N1CCC(CN=c2cc3n(-c4ccc(Cl)cc4)c4ccccc4nc-3cc2Nc2ccc(Cl)cc2)CC1)N1CC1
Data returned: 1

Data request: Test call, this molecule: COc1ccc(Cn2cnc3cc(C(=O)Nc4cccc5ccccc45)ccc32)c(OC)c1
Data returned: 1

Data request: Test call, this molecule: O=c1[nH]ccc2nc(-c3ccc(CN4CCC(c5nc(-c6ccccn6)n[nH]5)CC4)cc3)c(-c3ccccc3)cc12
Data returned: -1

Data request: Test call, this molecule: O=C1c2cccc3cccc(c23)C(=O)N1CCCCN1CCN(CCCCOc2ccc(-c3nc4ccc(N5CCOCC5)cc4[nH]3)cc2)CC1
Data returned: -1

Next:
Data request: Test call, this molecule: CC1CC(C)/C(=N/NC(N)=O)C(C(O)CC2CCC(=O)NC2=O)C1 (configuration not stated)
Data returned: -1

Data request: Test call, this molecule: COC(=O)c1cc2c3ccccc3n3c(=O)c4cc5cc(OC)c(N(S(=O)(=O)c6ccc(C)cc6)S(=O)(=O)c6ccc(C)cc6)cc5nc4c(n1)c23
Data returned: -1

Data request: Test call, this molecule: COc1ccc(/C(=N\O)c2cc(OC)c(OC)c(OC)c2)c(OC)c1N
Data returned: -1

Data request: Test call, this molecule: Cc1ccc(NSc2ccccc2[N+](=O)[O-])cc1
Data returned: 1

###

Test system: SK-OV-3 ovarian
test method notes: NCI tumour cell line growth inhibition, 48 h
quantity name: TGI

Here are 2 compounds together with their reported answers.
Data request: Hello, I am looking for reported TGI with SK-OV-3 ovarian for CC(C)C(Sc1nc(-c2ccccc2)c(-c2ccccc2)[nH]1)C(=O)N/N=C/c1ccc([N+](=O)[O-])cc1 (stereo not drawn) . Could you help?
Data returned: 48.2 µM

Data request: Hello, I am looking for reported TGI with SK-OV-3 ovarian for O=C(CC/C(CC(=O)c1ccc(Cl)cc1)=N/O)Nc1ccc(Cl)c(Cl)c1 . Could you help?
Data returned: > 100 µM

Next:
Data request: Hello, I am looking for reported TGI with SK-OV-3 ovarian for COc1cc(C2CC(c3ccc(Nc4ccnc5cc(Cl)ccc45)cc3)=NN2C=O)cc(OC)c1OC (stereo not drawn) . Could you help?
Data returned: 10.9 µM

Data request: Hello, I am looking for reported TGI with SK-OV-3 ovarian for COc1cc(C(=O)/C=C/c2c(-c3ccc(F)cc3)nc3ncccn23)cc(OC)c1OC . Could you help?
Data returned: 6.7 µM

Data request: Hello, I am looking for reported TGI with SK-OV-3 ovarian for CC(=O)[O-].CC(=O)[O-].O=C(N/N=C/c1cc(Cl)cc(Cl)c1[OH2+])c1ccncc1.[Zn+2] . Could you help?
Data returned: > 100 µM

Data request: Hello, I am looking for reported TGI with SK-OV-3 ovarian for CC(=O)Nc1ccc2c(c1)C(=O)c1cccc(F)c1-2 . Could you help?
Data returned: > 100 µM

Data request: Hello, I am looking for reported TGI with SK-OV-3 ovarian for C#C[C@@]1(O)CCCC2=CC(=O)C[C@]21C . Could you help?
Data returned: > 100 µM

Data request: Hello, I am looking for reported TGI with SK-OV-3 ovarian for CCCC(=O)/C=C/S/C=C/C(=O)CCC . Could you help?
Data returned: > 100 µM

Data request: Hello, I am looking for reported TGI with SK-OV-3 ovarian for CCOC(=O)N[C@H]1CCc2cc(O)c(OC)c(OC)c2-c2ccc(SC)c(=O)cc21 . Could you help?
Data returned: > 8.57 µM

Data request: Hello, I am looking for reported TGI with SK-OV-3 ovarian for Oc1ccc2ccccc2c1C(c1ccc(Cl)cc1)c1c(O)ccc2ccccc12 . Could you help?
Data returned: 19.9 µM

Data request: Hello, I am looking for reported TGI with SK-OV-3 ovarian for O=C1C=CC[C@H](/C=C/C[C@@H](O)C[C@H](O)/C=C/c2ccccc2)O1 . Could you help?
Data returned: 28.3 µM

Data request: Hello, I am looking for reported TGI with SK-OV-3 ovarian for O=C1N(CN2CCOCC2)CN(CN2CCOCC2)C(=O)N1Cc1ccccc1 . Could you help?
Data returned: > 100 µM

Data request: Hello, I am looking for reported TGI with SK-OV-3 ovarian for Cn1c(=O)c2nc3nnc(C#N)c(N)n3c2n(C)c1=O . Could you help?
Data returned: > 100 µM
